# test.system: BRD4 (Homo sapiens)
# Construct: endogenous in cells; host or cells: HEK293T cells stably expressing LgBit, with CRISPR/Cas9 knock-in of HiBit at the BRD4 C-terminus
# test.method.notes: Luciferase (HiBit) assay of BRD4 degradation in HEK293T LgBit (BRD4-HiBit KI) cells
# Assay type: cell-based
# particulars: compound 100 nM, luminescence at 8 hours, DMSO-only control
measured.parameter: BRD4 (luminescence value)
Lab note: record just the number, no unit beside it.

Reported BRD4 (luminescence value) for CC[C@@H]1C(=O)N(C)c2cnc(Nc3ccc(C(=O)NC4CCN(C(=O)CCCNc5cccc6c5C(=O)N(C5CCC(=O)NC5=O)C6=O)CC4)cc3OC)nc2N1C1CCCC1 (stereo partly drawn) [Compound 8] was 0.394

The compound identified as CC[C@@H]1C(=O)N(C)c2cnc(Nc3ccc(C(=O)N[C@H]4CC[C@H](N5CCN(CCOCCNc6cccc7c6C(=O)N(C6CCC(=O)NC6=O)C7=O)CC5)CC4)cc3OC)nc2N1C1CCCC1 (stereo partly drawn) [Compound 10] registered its BRD4 (luminescence value) at 0.629

// BRD4 (luminescence value) lookup, compound = COc1cc(C(=O)NCCOCCOCCNc2cccc3c2C(=O)N(C2CCC(=O)NC2=O)C3=O)ccc1Nc1ncc2c(n1)N(C1CCCCC1)[C@H](C)C(=O)N2C (stereo partly drawn) [Compound 9] , result: 0.484

* * *

# test.system: BRD4 (Homo sapiens, UniProt O60885)
# Construct: endogenous in cells; host or cells: HEK293T cells stably expressing LgBit, with CRISPR/Cas9 knock-in of HiBit at the BRD4 C-terminus
# test.method.notes: Luciferase (HiBit) assay of BRD4 degradation in HEK293T LgBit (BRD4-HiBit KI) cells
# Assay type: cell-based
# particulars: compound 100 nM, luminescence at 8 hours, DMSO-only control
measured.parameter: BRD4 (luminescence value)
Lab note: record just the number, no unit beside it.

Considering CC[C@@H]1C(=O)N(C)c2cnc(Nc3ccc(C(=O)N[C@H]4CCN(C(=O)CCC(=O)N5CCN(c6cccc7c6C(=O)N(C6CCC(=O)NC6=O)C7=O)CC5)C4)cc3OC)nc2N1C1CCCC1 (some centres unmarked) , its BRD4 (luminescence value) with BRD4 (Homo sapiens, UniProt O60885) was recorded as 0.731

Form: item CC[C@@H]1C(=O)N(C)c2cnc(Nc3ccc(C(=O)NCCOCCOCCNc4cccc5c4C(=O)N(C4CCC(=O)NC4=O)C5=O)cc3OC)nc2N1C1CCCC1 (some centres unmarked) [Comparative Example 1, reference compound] ; test system BRD4 (Homo sapiens, UniProt O60885); BRD4 (luminescence value): 0.223

Tested on BRD4 (Homo sapiens, UniProt O60885), the item CC[C@@H]1C(=O)N(C)c2cnc(Nc3ccc(C(=O)NCCOCCOCCNc4cccc5c4C(=O)N(C4CCC(=O)NC4=O)C5=O)cc3)nc2N1C1CCCC1 (some centres unmarked) showed BRD4 (luminescence value) equal to 0.692

Lab note: compound CC[C@@H]1C(=O)N(C)c2cnc(Nc3ccc(C(=O)NC4CCN(C(=O)CCN5CCN(c6cccc7c6C(=O)N(C6CCC(=O)NC6=O)C7=O)CC5)CC4)cc3OC)nc2N1C1CCCC1 (some centres unmarked) tested on BRD4 (Homo sapiens, UniProt O60885); recorded BRD4 (luminescence value) was 0.488

Kindly note: BRD4 (Homo sapiens, UniProt O60885), CC[C@@H]1C(=O)N(C)c2cnc(Nc3ccc(C(=O)NCCOCCOCCOCCOCCNc4cccc5c4C(=O)N(C4CCC(=O)NC4=O)C5=O)cc3OC)nc2N1C1CCCC1 (some centres unmarked) , BRD4 (luminescence value) value reported: 0.491
